target-under-test: d-enCas12a-Ultra (Acidaminococcus sp., UniProt U2UMQ6 1-1307, E174R;S542R;K548R;M537R;F870L;D908A;E993A;D1235A)
experiment-summary: Spec-seq (native PAGE EMSA with sequencing of bound and unbound); 25 mM Tris-HCl pH 7.4, 150 mM KCl, 5 mM MgCl2, 10% glycerol, 1 mM DTT, 40 ng/uL salmon sperm DNA; 400 nM Cas12a, 480 nM crRNA, 50 nM library, 37 C 1 h; native PAGE at room temperature; high values mean tight binding;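 further: relative affinity from the bound to unbound sequence frequency ratio in Spec-seq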
assay-setup: protein: recombinant
measured-metric: binding signal (lnKA)
Write the answer as a number in lnKA, unit excluded.

Past entries and their recorded results:
Ask | Look up binding signal: ATTC (dsDNA) DNA 1: GCTATCTAGTGCTCAGTACGCACTGATTCAGGAAACTTCTGGCAGGACCAGGTCATGAGATCGGAAGAGCACACGTCTGAACTCCAGTCA DNA 2: TGACTGGAGTTCAGACGTGTGCTCTTCCGATCTCATGACCTGGTCCTGCCAGAAGTTTCCTGAATCAGTGCGTACTGAGCACTAGATAGC RNA: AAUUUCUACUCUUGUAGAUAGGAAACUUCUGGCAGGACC
Reply | -0.186

Ask | Suppose we examine the binder CAAC (dsDNA) DNA 1: GCTATCTAGTGCTCAGTACGCACTGCAACAGGAAACTTCTGGCAGGACCAGGTCATGAGATCGGAAGAGCACACGTCTGAACTCCAGTCA DNA 2: TGACTGGAGTTCAGACGTGTGCTCTTCCGATCTCATGACCTGGTCCTGCCAGAAGTTTCCTGTTGCAGTGCGTACTGAGCACTAGATAGC RNA: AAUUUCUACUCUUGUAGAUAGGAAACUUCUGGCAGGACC ; what binding signal value has been reported?
Reply | -3.19

Now for the binder whose binding signal we want.
Ask | Please give the measured binding signal for this binder: CTAG (dsDNA) DNA 1: GCTATCTAGTGCTCAGTACGCACTGCTAGAGGAAACTTCTGGCAGGACCAGGTCATGAGATCGGAAGAGCACACGTCTGAACTCCAGTCA DNA 2: TGACTGGAGTTCAGACGTGTGCTCTTCCGATCTCATGACCTGGTCCTGCCAGAAGTTTCCTCTAGCAGTGCGTACTGAGCACTAGATAGC RNA: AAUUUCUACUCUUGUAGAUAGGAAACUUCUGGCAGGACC
Reply | -3.2
